Test system: NCI-H522 lung
Assay: NCI tumour cell line growth inhibition, 48 h
MEASUREMENT LABEL: TGI

See these solved cases before continuing.
- Nc1nc(Nc2cc(F)c(Cl)c(F)c2)cc(=O)[nH]1: > 100 µM
- Oc1ccc(/C=N/Nc2nnc(N/N=C/c3ccc(O)cc3O)c3ccccc23)c(O)c1: 0.799 µM
- NS(=O)(=O)c1cc2c(cc1Cl)NC(C(=O)NNC(=O)c1ccncc1)=NS2(=O)=O: > 100 µM

Shift focus to the following entry.
Query: TGI; subject: O=P1(C(O)c2ccccc2)N(Cc2ccccc2)[C@@H]2CCCC[C@H]2N1Cc1ccccc1 (stereo not given in full)
63.6 µM
